log10(MIC) listing for selected compounds.
- System: Staphylococcus epidermidis
- Test: In vitro antibacterial activity against Staphylococcus epidermidis 012GO39 OxaTei-R strain
- Type: functional
Answers are given as log10 of MIC in µg/mL.

## Task I'd like to know its log10(MIC). The compound in question is `CCCCCc1cc(O[C@@H]2O[C@@H](C)[C@H](OC)[C@@H](OC(=O)c3ccc(C)[nH]3)[C@H]2O)c(C)c2oc(=O)c(C(=O)O)cc12`
## Result -0.22

----------
MIC listing for selected compounds.
- System: Streptococcus pyogenes
- Test: In vitro antibacterial activity against Streptococcus pyogenes O2A1UC1 strain
Output spec: scalar in µg/mL, unitless text.

{"columns": ["Line notation", "Assay system", "MIC [µg/mL]"],
 "data": [
  ["CCCCCCCc1cc(O[C@@H]2O[C@@H](C)[C@H](OC)[C@@H](OC(=O)c3ccc(C)[nH]3)[C@H]2O)c(C)c2oc(=O)c(C(=O)NS(=O)(=O)c3ccccc3)cc12", "Streptococcus pyogenes", 0.3],
  ["CO[C@@H]1[C@@H](OC(=O)c2ccc(C)[nH]2)[C@@H](O)[C@H](Oc2ccc3c(CC(=O)O)cc(=O)oc3c2C)OC1(C)C", "Streptococcus pyogenes", 10]
]}

Okay, now this compound:
## Task Lab note: need MIC with Streptococcus pyogenes for entry `CO[C@@H]1[C@@H](OC(N)=O)[C@@H](O)[C@H](Oc2ccc3c(O)c(NC(=O)c4ccc(O)c(CC=C(C)C)c4)c(=O)oc3c2C)OC1(C)C` , please look it up.
## Result 0.15

----------
MIC listing for selected molecules.
- System: Streptococcus pyogenes
- Test: In vitro antibacterial activity against Streptococcus pyogenes O2A1UC1 strain

Examples with their reported MIC follow.
{"columns": ["Line notation", "MIC"],
 "data": [
  ["COC(=O)Cc1cc(=O)oc2cc(O[C@@H]3O[C@@H](C)[C@H](OC)[C@@H](OC(=O)c4ccc(C)[nH]4)[C@H]3O)ccc12", "> 40 µg/mL"],
  ["CO[C@@H]1[C@@H](OC(=O)c2ccc(C)[nH]2)[C@@H](O)[C@H](Oc2ccc3c(C)c(CC(=O)O)c(=O)oc3c2C)O[C@H]1C", "40 µg/mL"],
  ["CO[C@@H]1[C@@H](OC(=O)c2ccc(C)[nH]2)[C@@H](O)[C@H](Oc2ccc3cc(C(=O)O)c(=O)oc3c2C)O[C@H]1C", "40 µg/mL"],
  ["CCCc1cc(O[C@@H]2O[C@@H](C)[C@H](OC)[C@@H](OC(=O)c3ccc(C)[nH]3)[C@H]2O)c(C)c2oc(=O)c(C(=O)O)cc12", "> 40 µg/mL"],
  ["CCCCCc1cc(O[C@@H]2O[C@@H](C)[C@H](OC)[C@@H](OC(=O)c3ccc(C)[nH]3)[C@H]2O)c(C)c2oc(=O)c(C(=O)O)cc12", "1.2 µg/mL"]
]}

## Task I'd like to know its MIC. The molecule in question is `CO[C@@H]1[C@@H](OC(=O)c2ccc(C)[nH]2)[C@@H](O)[C@H](Oc2ccc3c(C(=O)O)cc(=O)oc3c2C)O[C@H]1C`
## Result > 40 µg/mL

## Task I'd like to know its MIC. The molecule in question is `CO[C@@H]1[C@@H](OC(=O)c2ccc(C)[nH]2)[C@@H](O)[C@H](Oc2ccc3c(C)c(CCC(=O)O)c(=O)oc3c2C)O[C@H]1C`
## Result 40 µg/mL

## Task I'd like to know its MIC. The molecule in question is `CCCCCCCc1cc(O[C@@H]2O[C@@H](C)[C@H](OC)[C@@H](OC(=O)c3ccc(C)[nH]3)[C@H]2O)c(C)c2oc(=O)c(C(=O)O)cc12`
## Result 0.3 µg/mL
